- Test system: RPMI-8226 leukemia
- experimental_details: NCI-60 one-dose screen, 48 h (100 = growth as untreated, 0 = no growth, -100 = all killed)
- experimental_setup: 10 µM unless noted
About 83,000 compounds went through this panel and 20% of them were active in at least one assay; those are over-represented in the sample as a whole.
Recorded measurements of growth, one per entry
Dear colleague, please return just the value in %, with no unit written.

{"columns": ["compound", "recorded_result"],
 "data": [
  ["N#C/C(=C\\c1ccc([N+](=O)[O-])s1)c1nc2cc(Cl)ccc2s1", -13.4],
  ["N#CC1C(C#N)C(C(=O)c2ccc(Br)cc2)N2c3ccccc3C=CC12 (stereo unspecified)", 94.1],
  ["O=C(Nc1ccccc1)Nc1ccc2cc3ccc(NC(=O)Nc4ccccc4)cc3nc2c1", 104],
  ["Nc1ccccc1NC(=O)c1ccc(-n2nc(-c3ccccc3)c3ccccc32)cc1", -8.09],
  ["Cc1nn(-c2ccccc2)c(Cl)c1/C=C/C(=O)c1ccc(F)cc1", -15.6]
]}

Okay, now this compound:
(Q) What measured growth goes with `Cc1nnc2c(Cc3ccccc3)nc3ccccc3n12` ?
(A) 93.2
